test_protocol: logP above 4 (octanol-water partition coefficient)
reported_conditions: Yes/No
assay_readout: logP > 4

Below, each entry is followed by its recorded logP > 4 result.
Exercise: Data request, read-out logP > 4, for C=CCOC(=O)CCC1CCCCC1 [allyl 3-cyclohexylpropanoate]
Solution: Yes

Exercise: logP > 4 for C=CC(C)(O)CCC=C(C)C (racemic) [(+/−)-3,7-dimethyl-1,6-octadien-3-ol] ?
Solution: No

Exercise: Recorded logP > 4 of CC(C)=CCCC(C)CCO (racemic) [(+/−)-3,7-dimethyl-6-octen-1-ol] , please.
Solution: No

Exercise: # lookup: logP > 4 of OCCc1ccccc1 [2-phenylethanol]
Solution: No

Exercise: # lookup: logP > 4 of CC(C)=CCC[C@@H](C)CC#N [(−)-(R)-3,7-dimethyl-6-octenenitrile]
Solution: No

New cases:
Exercise: What does the data say about its logP > 4? Entry: CC/C=C\CCOC(=O)c1ccccc1O [(3Z)-3-hexen-1-yl salicylate]
Solution: Yes

Exercise: Which logP > 4 value is on record for CC(CO)c1ccccc1 (racemic) [(+/−)-2-phenyl-1-propanol] ?
Solution: No

Exercise: What measured logP > 4 goes with c1ccc2[nH]ccc2c1 [Indole] ?
Solution: No

Exercise: Which logP > 4 is listed for CC1(C)CCC[C@]2(C)[C@H]3CCO[C@]3(C)CC[C@@H]12 (racemic) ?
Solution: Yes

Exercise: Field request: logP > 4 | item: CC(=O)C1(C)CC2=C(CCCC2(C)C)CC1C (stereo not shown)
Solution: Yes

Exercise: Entry under review: CC(CCO)CCc1ccccc1 (racemic) [(+/−)-3-methyl-5-phenyl-1-pentanol] . Reported logP > 4?
Solution: No

Exercise: May I ask what logP > 4 has been recorded for CCC(=O)OCC(C)(C)O[C@@H](C)[C@@H]1CCCC(C)(C)C1 ?
Solution: Yes

Exercise: What value of logP > 4 has been recorded for this entry: CC(=O)c1ccc2ccccc2c1 [1-(2-naphthyl)ethanone]
Solution: No

Exercise: Report logP > 4 for CC1=CCC(C(C)(C)O)CC1 (racemic) [(+/−)-alpha-terpineol] please.
Solution: No

Exercise: Tell me the measured logP > 4 of CCC(O)COC1CCCCC1C(C)(C)C (racemic) , please.
Solution: Yes

Exercise: Field request: logP > 4 | item: CCOc1ccc2ccccc2c1 [2-ethoxynaphthalene]
Solution: No

Exercise: Which logP > 4 reading was recorded for the molecule CC1=CC[C@H](/C=C/C(C)(C)C(C)O)C1(C)C (stereo partly shown) ?
Solution: Yes

Exercise: What value of measured logP > 4 is listed for CCCCC[C@H]1C(=O)CC[C@@H]1CC(=O)OC (racemic) ?
Solution: No

Exercise: Reported logP > 4 for C=CC(C)(CCC=C(C)C)OC(C)=O (racemic) : what is it?
Solution: Yes

Exercise: Which logP > 4 is reported for this molecule? CCC(=CCC1CC=C(C)C1(C)C)CO (racemic)
Solution: Yes

Exercise: Query: logP > 4; subject: C=CC(C)CCCC(C)(C)O (racemic) [(+−)-2,6-dimethyl-7-octen-2-ol]
Solution: No

Exercise: Return reported logP > 4; argument: CC/C(=C\C[C@H]1CC=C(C)C1(C)C)CO
Solution: Yes
